system: ACHN; assay: NCI tumour cell line growth inhibition, 48 h
Active and inactive are the calls of the source. No stated cut-off is given here; in the data, active = GI50 up to about 1.1 µM and inactive = higher.
Your response should consist of one outcome taken from true (1) for active, false (0) for inactive

Just curious, what result did N#Cc1c(N)c2c(c(-c3ccccc3)c1-c1ccccc1)C(=O)N(N)C2=O get here?
false (0)

Just curious, what result did O=C(O)CN1C(=O)CN=C(c2ccccn2)c2cc(Cl)ccc21 get here?
false (0)

Just curious, what result did N#Cc1sc2c(c1OC(=O)c1ccc(C(F)(F)F)cc1)c(=O)n(-c1ccccc1)c(=S)n2-c1ccccc1 get here?
false (0)

Just curious, what result did C=C1C(=O)O[C@@H]2[C@H]1C[C@@H](O)[C@H](C)[C@@](O)(C(=O)/C=C/C)[C@H]2OC(=O)C(C)CC (some centres not stated) get here?
false (0)

Just curious, what result did CCOC(=O)CNc1nc(=O)c2c(=O)oc(Cl)cc2o1 get here?
false (0)

Just curious, what result did CC(Br)CN1CCOCC1 (configuration not stated) get here?
false (0)

Just curious, what result did N/N=C1/C2CN3CCN(C2)CC1(c1ccc([N+](=O)[O-])cc1)C3 get here?
false (0)

Just curious, what result did C=C(C)C[C@H](Sc1nc2ccccc2s1)[C@H](C)O get here?
false (0)

Just curious, what result did O=C(NNCC(O)COc1ccccc1)c1ccccc1 (configuration not stated) get here?
false (0)

Just curious, what result did COc1cc2cc3c4cc(OC)c(OC)cc4cc[n+]3c(C)c2cc1OC get here?
false (0)

Just curious, what result did Cc1ccc(NC(=O)C(=O)Cc2nc3ccccc3o2)c(C)c1 get here?
false (0)

Just curious, what result did COc1cc(C2c3cc4c(cc3[C@@H](NCCN3CCCCC3)C3COC(=O)[C@H]23)OCO4)cc(OC)c1O (some centres not stated) get here?
true (1)

###

tested on: SN12C; assay: NCI tumour cell line growth inhibition, 48 h
The source made the active and inactive calls. No stated cut-off is given here; in the data, active = GI50 up to about 1.1 µM and inactive = higher.
REPORTED PROPERTY: GI50

Identify measured GI50 associated with COc1ccc(-c2c(C#N)c(N)nc3c2CCS(=O)(=O)c2ccccc2-3)cc1
> 100 µM (inactive)

Identify measured GI50 associated with CN(C)c1ccc(/C=C2\N=C(c3ccc(N)cc3)OC2=O)cc1
> 100 µM (inactive)

Identify measured GI50 associated with COC(=O)C(CCCCCCCC(C(=O)OC)C1=Nc2nnc(N)n2C1=O)C1=Nc2nnc(N)n2C1=O (stereo not drawn)
> 100 µM (inactive)

Identify measured GI50 associated with Cc1cc(S(=O)(=O)NC2=Nc3ccccc3C(c3ccccc3)N2)c(S)cc1Cl (stereo not drawn)
50.7 µM (inactive)

Identify measured GI50 associated with Cc1ccc(S(N)(=O)=O)cc1 [P-TOLUENESULFONAMIDE]
> 1000 µM (inactive)

Identify measured GI50 associated with Cc1cc2c(c(C#N)c1C)NC(=O)CCC2=O
> 100 µM (inactive)

Identify measured GI50 associated with Cc1ccc(S(=O)(=O)N/N=c2/sc3ccccc3n2C)cc1
> 100 µM (inactive)

Identify measured GI50 associated with Nc1nn2c(nc(N)c3c(N)n[nH]c32)c1/N=N\c1ccc(Br)cc1
7.76 µM (inactive)

Identify measured GI50 associated with O=c1c2ccc(Cl)cc2oc2c(CNc3ccc(S(=O)(=O)Nc4nccs4)cc3)cccc12
> 100 µM (inactive)

Identify measured GI50 associated with S=C1CSc2c(cnc3ccccc23)N1
> 100 µM (inactive)

Identify measured GI50 associated with O=C1/C(=C/Cc2ccco2)N=C(c2ccccc2)N1c1nc2ccc(Sc3ccccc3)cc2[nH]1
16.1 µM (inactive)

Identify measured GI50 associated with O=C1c2c(Br)sc(Br)c2C(NC(=O)C(F)(F)F)C1O (stereo not drawn)
18.7 µM (inactive)

Identify measured GI50 associated with N#Cc1c2c([nH]c(=O)c1C#N)CCCC2
> 100 µM (inactive)

Identify measured GI50 associated with CSc1ccc2c(cc1=O)[C@@H](NC(=O)c1ccc(N)cc1)CCc1cc(O)c(O)c(O)c1-2
29.5 µM (inactive)

Identify measured GI50 associated with COC(=O)c1ccccc1C#CCCCOS(C)(=O)=O
> 10 µM (inactive)

Identify measured GI50 associated with NC(=O)c1nnc2cc(F)c(F)cc2c1N
84.9 µM (inactive)

Identify measured GI50 associated with CC(=O)NC(CCCNCc1ccccc1)C(=O)NCc1ccccc1 (stereo not drawn)
> 100 µM (inactive)

Identify measured GI50 associated with Nc1ccccc1C(=O)/C=C/c1ccccc1O
55.2 µM (inactive)

Identify measured GI50 associated with Cc1cc(-c2ccccc2)nc(Nc2nc3ccccc3o2)n1
> 100 µM (inactive)

Identify measured GI50 associated with CC(=O)OC(C)(C)/N=N/c1ccc(Br)cc1
32.7 µM (inactive)

Identify measured GI50 associated with CC1=C/C(=C2/N=C(N(C)C)SS2)C(C)=N1.[O-][Cl+3]([O-])([O-])O
> 100 µM (inactive)

Identify measured GI50 associated with O=S(O)CCCCSSCc1ccccc1CSSCCCCS(=O)O
26 µM (inactive)

Identify measured GI50 associated with COC1C=C(Nc2cccc(Cl)c2)C(=O)C1 (stereo not drawn)
64.9 µM (inactive)

Identify measured GI50 associated with Cn1c(-c2cccs2)cc(-c2cccs2)c1-c1ccsc1
> 100 µM (inactive)

Identify measured GI50 associated with Cc1cccc2c3ccc4c(c3n(C)c12)C(=O)C=CC4=O
> 100 µM (inactive)

Identify measured GI50 associated with CN(C)CC(=O)N1CCc2c([nH]c3ccccc23)C1c1cccnc1 (stereo not drawn)
> 100 µM (inactive)

Identify measured GI50 associated with CN1C/C(=C\C=C\c2ccccc2)C(=O)/C(=C/C=C/c2ccccc2)C1
> 100 µM (inactive)

Identify measured GI50 associated with Oc1nnnc2c1sc1ncccc12
> 100 µM (inactive)

Identify measured GI50 associated with COc1ccc2c(c1)C1Oc3ccccc3CC1CO2 (stereo not drawn)
35.4 µM (inactive)

Identify measured GI50 associated with O=C1NCCS(=O)(=O)N2CCC[C@@H]12
> 100 µM (inactive)

Identify measured GI50 associated with CC1(C)CCC[C@@]2(C)C1CC[C@@]1(CO1)[C@@H]2/C=C\C(C=O)CC=O (stereo partly drawn)
> 68.1 µM (inactive)

Identify measured GI50 associated with Cc1nn(C(=O)Cc2ccccc2)c2c1C(c1ccccc1)SC(=N)N2 (stereo not drawn)
> 100 µM (inactive)

Identify measured GI50 associated with CC(=O)O[C@H]1CCC2[C@@H]3CCC4=C(O)c5nocc5C[C@]4(C)C3CC[C@@]21C (stereo partly drawn)
> 100 µM (inactive)

This collection of values is drawn from ChEMBL document CHEMBL1201862.
